# Tested on: 3D7-MR4 trophozoite parasite-infected RBCs
# assay.overview: Metabolomic profiling (hydrophilic metabolite changes, UHPLC-MS)
# Assay type: cell-based, Plasmodium falciparum
# condition.notes: metabolite Inositol
Please go through the items and note down their Log2(fold change) Inositol.
// keep it numeric: no unit symbol after the value

Problem: Requested read-out: Log2(fold change) Inositol. Entry: FC(F)(F)c1ccc(Nc2cc3[nH]c(-c4cccc(C(F)(F)F)c4)nc3cn2)nc1 [MMV675939]
Result: 0.0000

Problem: Next up: COCCNCC(O)Cn1c2ccc(Cl)cc2c2cc(Cl)ccc21 (centres unmarked) [MMV019017]
Result: 0.0000

Problem: Next up: Cl.c1ccc2c(NCCCCCCNc3c4c(nc5ccccc35)CCCC4)c3c(nc2c1)CCCC3 [MMV019555]
Result: 0.0000

Problem: Next up: O=C(Nc1ccsc1C(=O)NC1CCCCC1)c1ccc(F)cc1 [MMV665939]
Result: 0.0000

Problem: Next up: Cc1cc(Nc2ccc(OCc3ccccc3)cc2)nc2cc(O)ccc12 [MMV007181]
Result: 0.0000

Problem: Next up: FC(F)(F)c1cccc(Nc2nc3ccccc3nc2Nc2cccc(C(F)(F)F)c2)c1 [MMV665794]
Result: 0.4519

Problem: Next up: Clc1ccc2c(N3CCN(CCCN4CCN(c5ccnc6cc(Cl)ccc56)CC4)CC3)ccnc2c1 [Piperaquine, reference compound]
Result: 0.0000

Problem: Next up: COc1cc(-c2nc(-c3ccccc3)c(-c3ccccc3)[nH]2)ccc1OCCN(C)C [MMV027496]
Result: 0.0000
